Listing: inhibition at 30 µM of selected compounds
System: primary cells from kidney tissues of human ADPKD patients
TEST: Inhibition of three-dimensional cyst formation using primary cells from kidney tissue of human ADPKD patient
Type: cell-based
CONDITION_SUMMARY: 168 h, test compound 30 μM, forskolin + ITS stimulation, 7 days 3D culture, average N=3, read-out: Inhibition rate (%) of cyst formation
Experimental: Primary cells were isolated from kidney tissues of human ADPKD patients. Under two-dimensions, the isolated cells were cultured for 2 days using DMEM/F-12 (Thermo Fisher Scientific, Inc.) supplemented with 10% FBS. Subsequently, three-dimensional culture was performed for 7 days using 3D Ready Atelocollagen (KOKEN CO., LTD.). […] The inhibition rate was determined by the following formula.
Reply with just the number (in %).

CHEMICAL_SMILES: O=C(Nc1ccc(Cl)cc1C(=O)c1cnn(-c2ccc(Cl)c(C(F)(F)F)c2)c1)c1cccc(CN2CCC(N3CCCCC3)CC2)c1
inhibition at 30 µM / %: 100

CHEMICAL_SMILES: O=c1[nH]nc(Sc2ccc(C(F)(F)F)cn2)n1-c1cc(Cl)c(Cl)cc1C(F)(F)F
inhibition at 30 µM / %: 98.2

CHEMICAL_SMILES: C[C@]12CCCN1N(Cc1cccc(Cl)c1F)C(=O)C(C(=O)Nc1cc(F)c(Br)c(F)c1)=C2O
inhibition at 30 µM / %: 100

Here is another compound to look at.
Could you share what inhibition at 30 µM was measured for CCCN([C@H]1CC[C@H](C(=O)[O-])CC1)S(=O)(=O)c1cccc(C(=O)Nc2sc3c(c2C(=O)Nc2ccc(CCCc4ccc(C(=O)[O-])cc4)cc2)CCCC3)c1.[Na+].[Na+] , tested on primary cells from kidney tissues of human ADPKD patients?
94.4

====

SYSTEM_UNDER_TEST: human PiT1 (Homo sapiens, UniProt Q8WUM9)
Sequence (Q8WUM9 1-679): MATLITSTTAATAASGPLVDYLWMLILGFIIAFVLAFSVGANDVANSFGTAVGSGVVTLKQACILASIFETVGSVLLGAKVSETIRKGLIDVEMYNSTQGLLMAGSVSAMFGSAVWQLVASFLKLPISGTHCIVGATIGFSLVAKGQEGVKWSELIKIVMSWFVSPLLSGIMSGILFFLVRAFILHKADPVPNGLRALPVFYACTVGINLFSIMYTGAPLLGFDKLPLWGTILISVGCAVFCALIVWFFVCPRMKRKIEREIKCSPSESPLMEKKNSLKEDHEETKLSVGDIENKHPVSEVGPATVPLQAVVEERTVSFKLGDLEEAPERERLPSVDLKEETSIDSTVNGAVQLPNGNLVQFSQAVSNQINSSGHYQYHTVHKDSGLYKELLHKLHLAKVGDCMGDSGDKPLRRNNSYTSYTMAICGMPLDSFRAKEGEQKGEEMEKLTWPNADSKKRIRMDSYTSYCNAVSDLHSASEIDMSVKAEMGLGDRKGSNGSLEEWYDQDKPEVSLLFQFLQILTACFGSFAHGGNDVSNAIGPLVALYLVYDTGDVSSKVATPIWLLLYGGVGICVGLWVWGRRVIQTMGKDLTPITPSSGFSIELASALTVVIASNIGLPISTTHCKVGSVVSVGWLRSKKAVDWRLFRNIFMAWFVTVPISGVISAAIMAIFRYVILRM
TEST: 33PO4 uptake inhibition in CHO cells expressing human PiT1
CONDITION_SUMMARY: CHO cells transiently expressing human PiT1, pH 6.5
Procedure: For transient expression, human NaPi-IIb expression plasmids, human PiT1 expression plasmids, human PiT2 expression plasmids, and Fugene HD Transfection (Promega Corporation) were added to CHO cells using a 96-well plate, and the plate was incubated in a C02 incubator for 16 hours. […] The inhibition rate was determined by the following formula. […]
pIC50: −log10 of the molar value.
OUTCOME_MEASURE: pIC50

CHEMICAL_SMILES: O=C(Nc1ccc(Cl)cc1C(=O)c1cnn(-c2ccc(Cl)c(C(F)(F)F)c2)c1)c1cccc(CN2CCC(N3CCCCC3)CC2)c1
pIC50: < 4.52

Here is another compound to look at.
Which pIC50 value belongs to CCCN([C@H]1CC[C@H](C(=O)[O-])CC1)S(=O)(=O)c1cccc(C(=O)Nc2sc3c(c2C(=O)Nc2ccc(CCCc4ccc(C(=O)[O-])cc4)cc2)CCCC3)c1.[Na+].[Na+] ?
< 4.52
